Test target: DELAY OF GERMINATION1 (DOG1) (Arabidopsis thaliana, UniProt A0SVK0, H245A)
Construct: full-length, N-terminal His6-tagged
Test summary: UV-visible absorption hemin titration ([…] nm)
Type: binding
Experimental endpoint: Kd
Please answer using a numeric value trailed by its unit.

Exercise: # get_value(readout= Kd, system= DELAY OF GERMINATION1 (DOG1) (Arabidopsis thaliana, UniProt A0SVK0, H245A)) for C=CC1=C(C)C2=Cc3c(C=C)c(C)c4[n]3[Fe]([Cl])[n]3c(c(C)c(CCC(=O)O)c3=CC3=NC(=C4)C(C)=C3CCC(=O)O)=CC1=N2
Solution: 129 nM

* * *

Test target: DELAY OF GERMINATION1 (DOG1) (Arabidopsis thaliana, UniProt A0SVK0, H245A/H249A)
Construct: full-length, N-terminal His6-tagged
Test summary: UV-visible absorption hemin titration ([…] nm)
Experimental endpoint: Kd (nM)
# unit: nM | format: bare number

Exercise: # get_value(readout= Kd, system= DELAY OF GERMINATION1 (DOG1) (Arabidopsis thaliana, UniProt A0SVK0, H245A/H249A)) for C=CC1=C(C)C2=Cc3c(C=C)c(C)c4[n]3[Fe]([Cl])[n]3c(c(C)c(CCC(=O)O)c3=CC3=NC(=C4)C(C)=C3CCC(=O)O)=CC1=N2
Solution: 918

* * *

Test target: DELAY OF GERMINATION1 (DOG1) (Arabidopsis thaliana, UniProt A0SVK0)
Sequence (A0SVK0 1-291): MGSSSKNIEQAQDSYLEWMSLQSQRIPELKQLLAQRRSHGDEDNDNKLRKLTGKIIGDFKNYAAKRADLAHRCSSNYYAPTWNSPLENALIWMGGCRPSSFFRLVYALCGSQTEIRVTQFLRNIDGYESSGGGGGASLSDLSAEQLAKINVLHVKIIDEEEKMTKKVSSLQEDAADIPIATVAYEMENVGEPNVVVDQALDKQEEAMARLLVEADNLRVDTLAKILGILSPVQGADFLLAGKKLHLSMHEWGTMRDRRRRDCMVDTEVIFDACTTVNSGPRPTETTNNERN
Test summary: UV-visible absorption titration of apo-DOG1 with hemin (Soret peak, […] nm), […] fit
Experimental endpoint: Kd (µM)
# unit: µM | format: bare number

Exercise: Reported Kd, compound C=CC1=C(C)C2=Cc3c(C=C)c(C)c4[n]3[Fe]([Cl])[n]3c(c(C)c(CCC(=O)O)c3=CC3=NC(=C4)C(C)=C3CCC(=O)O)=CC1=N2 [hemin] : ____
Solution: 0.059
